# TARGET_OR_SYSTEM: T1, full-length PcrV.6xhis (Pseudomonas aeruginosa)
# T1 construct: Recombinant full-length V-tip protein of the type 3 secretion system, His-tagged; also called full-length PcrV with a C-terminal hexahistidine tag
# TEST_DESCRIPTION: SPR (Biacore T200), mAb captured via anti-human Fc, PcrV injected, 37 C
Hi, to clarify the labels: Criterion met covers kon from 300000 M⁻¹ s⁻¹ upward, Criterion not met covers anything below 300000 M⁻¹ s⁻¹.

>>> cat("REGN3977 (antibody, V domains shown, also called Control III; REGN3977-Control III) VH: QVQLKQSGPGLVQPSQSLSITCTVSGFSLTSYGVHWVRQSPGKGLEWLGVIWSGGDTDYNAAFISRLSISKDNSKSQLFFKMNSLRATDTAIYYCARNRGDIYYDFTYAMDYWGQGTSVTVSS VL: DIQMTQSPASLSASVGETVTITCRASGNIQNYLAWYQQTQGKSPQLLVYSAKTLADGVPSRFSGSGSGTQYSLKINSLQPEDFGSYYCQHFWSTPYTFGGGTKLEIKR")
"Criterion not met"
>>> cat("H1H29336P (antibody, V domains shown) VH: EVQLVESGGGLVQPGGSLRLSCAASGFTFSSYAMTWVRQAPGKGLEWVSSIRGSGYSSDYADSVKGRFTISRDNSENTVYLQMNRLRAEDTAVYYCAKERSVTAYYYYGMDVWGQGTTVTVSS VL: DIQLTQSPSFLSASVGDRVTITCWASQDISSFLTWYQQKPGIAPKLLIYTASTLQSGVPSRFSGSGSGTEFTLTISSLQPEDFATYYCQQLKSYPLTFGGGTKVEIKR")
"Criterion met"
>>> cat("REGN3514 (antibody, V domains shown, also called Control I; Control I-REGN3514) VH: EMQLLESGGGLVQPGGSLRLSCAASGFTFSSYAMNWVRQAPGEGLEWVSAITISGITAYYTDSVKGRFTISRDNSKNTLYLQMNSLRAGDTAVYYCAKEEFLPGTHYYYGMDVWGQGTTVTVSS VL: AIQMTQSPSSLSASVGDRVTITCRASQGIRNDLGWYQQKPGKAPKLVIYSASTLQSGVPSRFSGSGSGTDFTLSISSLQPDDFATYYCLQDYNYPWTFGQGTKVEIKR")
"Criterion met"
>>> cat("H1H29329P (antibody, V domains shown) VH: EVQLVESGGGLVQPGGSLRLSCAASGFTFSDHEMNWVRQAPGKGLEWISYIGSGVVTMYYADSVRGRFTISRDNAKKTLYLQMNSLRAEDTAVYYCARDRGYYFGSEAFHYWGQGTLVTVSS VL: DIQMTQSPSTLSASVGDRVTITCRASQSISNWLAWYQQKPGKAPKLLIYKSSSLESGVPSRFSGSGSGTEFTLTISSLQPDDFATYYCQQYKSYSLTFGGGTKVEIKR")
"Criterion met"

Now look at this entry.
Problem: Exam item: decide whether the reported kon for H1H29339P (antibody, V domains shown) VH: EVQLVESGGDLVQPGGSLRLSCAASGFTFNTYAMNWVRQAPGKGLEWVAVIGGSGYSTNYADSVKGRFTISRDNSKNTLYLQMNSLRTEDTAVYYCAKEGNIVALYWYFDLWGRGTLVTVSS VL: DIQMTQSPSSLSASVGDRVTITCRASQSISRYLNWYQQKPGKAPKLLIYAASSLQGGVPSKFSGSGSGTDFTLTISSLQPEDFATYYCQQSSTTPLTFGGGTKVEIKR is at least 300000 M⁻¹ s⁻¹.
Result: Criterion met
